- assay_remarks: M. tuberculosis H37Rv growth inhibitors, H37Rv strain (AID 1626);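 further: bacteria incubated seven days before Alamar blue readout; 0% = bacteria only wells and 100% = bacteria with antibiotic wells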
- condition_notes: stronger effect = higher value, concentration not given here
Out of some 220,000 compounds screened, about 2,000 (0.91%) were called active. Roughly 2% stayed inconclusive and do not appear here. The list is a sample of the results. Potency and affinity values are given separately.
inhibition: recorded values
Kindly provide the numeric value in % only, without the unit symbol.

Here are 3 compounds together with their reported answers.
[[record]]
compound = "Cc1ccc(-c2cc(C(F)F)n3ncc(C(=O)Nc4c(C)nn(Cc5c(Cl)cccc5Cl)c4C)c3n2)cc1"
meas_value = 57.7

[[record]]
compound = "CCOC(=O)c1ccc(NC(=O)Nc2ccc(F)cc2)cc1"
meas_value = -14.9

[[record]]
compound = "C=CCc1cc(OC)ccc1OCCOCCN1CCc2ccccc2C1"
meas_value = 6.94


## Task I would be grateful if you could share the reported inhibition for O=c1oc2ccccc2cc1-c1ccccc1 .
## Result -5.07

## Task I'd like to know its inhibition. The compound in question is O=C(NCc1ccccn1)/C(=N/O)c1ccccc1
## Result 1.57

## Task Item under review: CCCCOc1ccc(C(=O)Nc2cc(C)c(OCC(=O)N3CCOCC3)c(C)c2)cc1 . Reported inhibition?
## Result -1.36

## Task So what's the measured inhibition for this one? CC1(C)Cc2c(sc(NC(=O)COc3ccccc3)c2C#N)C(C)(C)N1
## Result -3.34

## Task What does the record list as inhibition for CCOC(=O)c1c(NC(=O)C2COc3ccccc3O2)sc(C(C)=O)c1C (stereo not drawn) ?
## Result -3.37

## Task Value lookup for inhibition; key = O=C(O)c1ccc(NC(=O)C2C3CCC(C3)C2C(=O)O)cc1 (stereo not drawn)
## Result 0.17

## Task So what does the record say about inhibition for COc1cccc(-c2nnc(SCC(=O)Nc3cc(C)on3)n2C)c1 ?
## Result -2.38

## Task For CCCCc1nc2sc3c(=O)n(N)cnc3c2c2c1CCC2 , what is its reported inhibition?
## Result -0.89

## Task Sample COc1ccccc1NC(=O)c1ccc(NC(=O)c2cc3c(s2)CCC3)cc1 — what was its inhibition?
## Result 0.63

## Task State the recorded inhibition for this entry: COc1ccc(NC(=O)C(C)Sc2nnc3c4c(nc(-c5ccc(OC)cc5)n23)CC(C)(C)OC4)cc1 (stereo not drawn)
## Result 4.37

---

- assay_remarks: M. tuberculosis H37Rv growth inhibitors, H37Rv strain (AID 1626);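 further: bacteria incubated seven days before Alamar blue readout; 0% = bacteria only wells and 100% = bacteria with antibiotic wells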
- condition_notes: stronger effect = higher value, concentration not given here
Hit rate of the full screen: of about 220,000 compounds, about 2,000 (0.91%) were called active. Not shown: some 2% with an inconclusive outcome. Not all results are given here. Entries with a potency or affinity are not part of this list.
Entries and their measured inhibition follow.

// known answers, use as guide
[[record]]
compound = "COc1ccc(-c2[nH]ncc2CNC(C)Cc2cccc(C)n2)cc1F (stereo unspecified)"
meas_value = "0.91% (inactive)"

[[record]]
compound = "COc1cccc(CN2CCC(C(=O)N3CCN(c4ccccc4F)CC3)CC2)c1"
meas_value = "-8.97% (inactive)"

[[record]]
compound = "C/C(=N\\NC(=O)C1(C)NC(C)(C)Cc2ccccc21)c1ccccc1 (stereo unspecified)"
meas_value = "1.17% (inactive)"

[[record]]
compound = "CCc1ccccc1NC(=O)c1cc(C2CC2)on1"
meas_value = "8.45% (inactive)"

[[record]]
compound = "Cc1cc(NC(=O)c2ccc(F)cc2F)n(-c2nc3ccccc3[nH]2)n1"
meas_value = "4.49% (inactive)"

[[record]]
compound = "COC(=O)Nc1ccc(S(=O)(=O)NCc2ccccn2)cc1"
meas_value = "4.77% (inactive)"

[[record]]
compound = "O=S(=O)(c1ccc2c(c1)OCCCO2)N1CCNCC1"
meas_value = "-0.23% (inactive)"

[[record]]
compound = "Cc1nn(C)c(C(=O)N/N=C/c2ccccc2)c1[N+](=O)[O-]"
meas_value = "-7.25% (inactive)"

[[record]]
compound = "Cc1cc(C)c2nc(Nc3nc(-c4ccccc4)cc(=O)[nH]3)nc(C)c2c1"
meas_value = "2.35% (inactive)"

[[record]]
compound = "CCN(CCCNC(=O)C1CCC(=O)N1C1CCCC1)c1cccc(C)c1 (stereo unspecified)"
meas_value = "0.34% (inactive)"


## Task Which inhibition reading was recorded for the compound CN1c2ccc([N+](=O)[O-])cc2CC2(C(=O)NC(=O)NC2=O)C1c1ccccc1 (stereo unspecified) ?
## Result 0.68% (inactive)

## Task Which value of inhibition has been reported for CCOC(=O)N/N=C/c1cn(CCCOc2ccccc2)c2ccccc12 in the records?
## Result 8.89% (inactive)

## Task Quick check: inhibition of N#Cc1ccc(NC(=O)N2CCC(c3nc4c(nnn4Cc4cccc(Cl)c4)c(=O)[nH]3)CC2)cc1 ?
## Result 69% (inactive)

## Task Would you mind telling me what inhibition value was observed for Cc1ccc(CN(C(=O)Cc2cccs2)C(C(=O)NC2CCCC2)c2ccncc2)cc1 (stereo unspecified) ?
## Result 7.49% (inactive)

## Task What measured inhibition goes with O=S(=O)(Nc1nc2ccccc2nc1-[n+]1ccccc1)c1ccc(Cl)cc1 ?
## Result -0.65% (inactive)

## Task May I ask what inhibition has been recorded for Brc1ccc(Oc2ncc(CN3CCN(c4ccccc4)CC3)s2)cc1 ?
## Result 2.17% (inactive)

## Task Data request, read-out inhibition, for O=C(NC1CCCCC1)c1ccccc1-c1ccccc1
## Result 0.73% (inactive)

## Task Would you kindly share the measured inhibition for Cc1cc(NC(=O)/C=C/c2ccccc2Cl)n(-c2nc3ccccc3[nH]2)n1 ?
## Result 66.7% (inactive)

## Task Please report the recorded inhibition for O=C(Nc1ccc(F)cc1)N1CCC(c2nc3c(nnn3Cc3cccc(Cl)c3)c(=O)[nH]2)CC1 .
## Result 64.2% (inactive)

## Task Request the reported inhibition associated with COC1=CC(=O)CC(C)C12Oc1cc(OC)cc(OC)c1C2=O (stereo unspecified)
## Result -7.12% (inactive)

## Task Would you mind telling me what inhibition value was observed for COc1ccc(C)cc1NC(=O)COC(=O)C1CCN(C(=O)c2ccc(Cl)cc2)CC1 ?
## Result 3.93% (inactive)

## Task Looking for the measured inhibition of COc1ccccc1Nc1nc(NCc2ccco2)c2ccccc2n1 , can you help?
## Result 83.7% (inactive)

## Task Return reported inhibition; argument: c1ccc(CNc2nc(NCc3ccco3)nc(N3CCOCC3)n2)cc1
## Result 10.6% (inactive)

## Task Any idea what inhibition was measured for O=[N+]([O-])c1ccc(COc2ccc(-c3[nH]ncc3-c3ccccc3)c(O)c2)cc1 ?
## Result 11.9% (inactive)

## Task I'd like to know its inhibition. The compound in question is CCOC(=O)c1ccc(NC(=O)C(=O)NCC2CCCO2)cc1 (stereo unspecified)
## Result 65.4% (inactive)

## Task For COc1ccccc1C1(CCN=Cc2ccc(N(C)C)cc2)CCOC(C)(C)C1 (stereo unspecified) , what is its reported inhibition?
## Result 2.7% (inactive)

## Task For the compound CCCCOc1ccc(C(NC(=O)OCC)NC(=O)OCC)cc1 , what inhibition is on record?
## Result 5.59% (inactive)
